- protocol.description: Etodolac pharmacokinetic profile after a single dose, plasma LC-MS/MS, non-compartmental
- Assay type: in vivo, human
- run.conditions: both sexes, human, oral, 500 mg, Mean of 37 participants, single dose 500 mg, read-out: Kel (converted)
reported.metric: k el
Answer with the value and then the unit.

Item: CCc1cccc2c3c([nH]c12)C(CC)(CC(=O)O)OCC3 (stereo not shown) | k el: 2.5e-05 s⁻¹

----------
- protocol.description: Etodolac pharmacokinetic profile after a single dose, plasma LC-MS/MS, non-compartmental
- Assay type: in vivo, human
- run.conditions: both sexes, human, oral, overall mean (SD), 37 healthy volunteers, single dose Flancox 500 mg tablet after high-calorie diet, read-out: area under the curve from time zero to time t (AUC0-t)
reported.metric: AUC0-t (µg·h/mL)
Please state the figure in µg·h/mL; there is no need to write the unit.

// recorded AUC0-t for CCc1cccc2c3c([nH]c12)C(CC)(CC(=O)O)OCC3 (stereo not shown) : 203

----------
- protocol.description: Etodolac pharmacokinetic profile after a single dose, plasma LC-MS/MS, non-compartmental
- Assay type: in vivo, human
- run.conditions: both sexes, human, oral, 500 mg, overall mean (SD), 37 healthy volunteers, single dose Flancox 500 mg tablet after high-calorie diet, read-out: half-life (T1/2) (converted)
reported.metric: half-life (h)
Field format: number, assumed h, no unit text.

Reported half-life ( CCc1cccc2c3c([nH]c12)C(CC)(CC(=O)O)OCC3 (stereo not shown) [Etodolac] ) = 8.2

----------
- protocol.description: Etodolac pharmacokinetic profile after a single dose, plasma LC-MS/MS, non-compartmental
- Type: in vivo, human
- run.conditions: both sexes, human, oral, 500 mg, Mean of 37 participants, single dose 500 mg, read-out: Tmax
- Excerpt: The analytical method used to calculate the pharmacokinetic parameters was validated according to Resolution No. 27/2012 of the Agência Nacional de Vigilância Sanitária (ANVISA). In this study, an LC-MS/MS system was used to quantify ETO. […] The targeted analysis for ETO was detected by a multiple reaction monitoring (MRM) transition of 286 > 242, and mefenamic acid (Internal Standard) was detected by an MRM transition of 240 > 196 in negative acquisition mode. […]
reported.metric: Tmax
Write the figure, then the unit, nothing else.

Entry CCc1cccc2c3c([nH]c12)C(CC)(CC(=O)O)OCC3 (stereo not shown) ; Tmax = 2.24 h
